The measured values listed here are drawn from ChEMBL document CHEMBL1140334.

- Test system: HASMC
- assay-notes: Concentration required to inhibit proliferation of HASMC
- run-conditions: Homo sapiens
Provide the recorded pIC50 for the entries that follow.
Numbers only, as −log10 of the molar value.

# example entries with known answers
- substance-smiles: "Clc1cccc(Nc2cncc(-c3cncc(NCCCn4cncn4)c3)n2)c1"
  target-or-test-system: "HASMC"
  pIC50: 5.53
- substance-smiles: "CN(C)CCNc1cncc(-c2cncc(Nc3cccc(Cl)c3)n2)c1"
  target-or-test-system: "HASMC"
  pIC50: 5.56
- substance-smiles: "Clc1cccc(Nc2cncc(-c3cncc(NCCCn4cccn4)c3)n2)c1"
  target-or-test-system: "HASMC"
  pIC50: 5.52

List reported pIC50 for each of these molecules:
1. OCCCCNc1cncc(-c2cncc(Nc3cccc(Cl)c3)n2)c1
2. OCCCNc1cncc(-c2cncc(Nc3cccc(Cl)c3)n2)c1
3. Clc1cccc(Nc2cncc(-c3cncc(NCCCc4cccnc4)c3)n2)c1

1: 5.49; 2: 5.41; 3: 5.21

====

- assay-notes: Inhibition of cyclin-dependent kinase 1 activity
pIC50: −log10 of the molar value.
What pIC50 was measured for each of the following?

Consider the worked cases shown below.
- substance-smiles: "Clc1cccc(Nc2cncc(-c3cncc(NCCCc4ccccc4)c3)n2)c1"
  result: "< 5.00"
- substance-smiles: "OCCNc1cncc(-c2cncc(Nc3cccc(Cl)c3)n2)c1"
  result: "< 5.00"
- substance-smiles: "Nc1ncc(NCCCO)cc1-c1cncc(Nc2cccc(Cl)c2)n1"
  result: "< 5.00"

Give measured pIC50 for every item shown.
1. Clc1ccc(Nc2cncc(-c3cncc(NCCCc4ccncc4)c3)n2)cc1
2. O=C(COCc1ccccc1)Nc1cncc(-c2cncc(Nc3cccc(Cl)c3)n2)c1
3. Clc1cccc(Nc2cncc(-c3cncc(NCCCc4ccncc4)c3)n2)c1
4. Clc1cccc(Nc2cncc(-c3cncc(NCCCn4cccn4)c3)n2)c1

1: < 5.00; 2: < 5.00; 3: < 5.00; 4: < 5.00

For every item in the list below, what is its measured pIC50?
1. Nc1cncc(-c2cncc(Nc3cccc(Cl)c3)n2)c1
2. Clc1cccc(Nc2cncc(-c3cncc(NCC4CCOCC4)c3)n2)c1
3. O=C(CCCNc1cncc(-c2cncc(Nc3cccc(Cl)c3)n2)c1)N1CCCCC1
4. CN(C)CCCNc1cncc(-c2cncc(Nc3cccc(Cl)c3)n2)c1
5. Clc1cccc(Nc2cncc(-c3cncc(NCCCN4CCNCC4)c3)n2)c1
6. OCCCNc1cnc(Cl)c(-c2cncc(Nc3cccc(Cl)c3)n2)c1

1. < 5.00
2. < 5.00
3. < 5.00
4. < 5.00
5. 5.25
6. < 5.00

====

- Tested on: MRC5
- assay-notes: Concentration required to inhibit proliferation of human MRC5 fibroblast cell growth
Assign pIC50 to each entry below.
Give bare numbers, as −log10 of the molar value.

- substance-smiles: "Clc1cccc(Nc2cncc(-c3cncc(NCCCc4cccnc4)c3)n2)c1"
  pIC50: 5.47

Parameters: items (list). Returns: pIC50 for each item.
1. Clc1cccc(Nc2cncc(-c3cncc(NCCCn4cncn4)c3)n2)c1
2. Clc1cccc(Nc2cncc(-c3cncc(NCCCn4cccn4)c3)n2)c1
3. CN(C)CCNc1cncc(-c2cncc(Nc3cccc(Cl)c3)n2)c1
4. OCCCCNc1cncc(-c2cncc(Nc3cccc(Cl)c3)n2)c1
5. OCCCNc1cncc(-c2cncc(Nc3cccc(Cl)c3)n2)c1

1: 5.17; 2: 5.44; 3: 5.54; 4: 5.44; 5: 5.18

====

Please go through the items and note down their pIC50.
- target-or-test-system: Mitogen-activated protein kinase 1 (Homo sapiens)
- Sequence (P28482 whole entry): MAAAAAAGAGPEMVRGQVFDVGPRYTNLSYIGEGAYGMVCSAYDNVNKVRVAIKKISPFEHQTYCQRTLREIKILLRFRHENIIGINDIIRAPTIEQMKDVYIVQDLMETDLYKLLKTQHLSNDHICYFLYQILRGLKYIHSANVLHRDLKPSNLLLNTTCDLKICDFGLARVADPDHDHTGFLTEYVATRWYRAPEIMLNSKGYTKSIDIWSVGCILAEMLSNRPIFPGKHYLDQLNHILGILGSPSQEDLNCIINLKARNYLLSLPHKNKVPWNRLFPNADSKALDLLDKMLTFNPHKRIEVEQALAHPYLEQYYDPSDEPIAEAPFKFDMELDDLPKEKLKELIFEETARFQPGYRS
- assay-notes: Inhibition of mitogen-activated protein kinase
pIC50: −log10 of the molar value.

Sample answers from the record:
- substance-smiles: "CN(C)CCNc1cncc(-c2cncc(Nc3cccc(Cl)c3)n2)c1"
  endpoint: "pIC50"
  result: "< 5.00"
- substance-smiles: "OCCCCNc1cncc(-c2cncc(Nc3cccc(Cl)c3)n2)c1"
  endpoint: "pIC50"
  result: "< 5.00"
- substance-smiles: "Clc1cccc(Nc2cncc(-c3cncc(NCCCn4cccn4)c3)n2)c1"
  endpoint: "pIC50"
  result: "< 5.00"
- substance-smiles: "Clc1cccc(Nc2cncc(-c3cncc(NCCCc4cccnc4)c3)n2)c1"
  endpoint: "pIC50"
  result: "< 5.00"

Now consider a different compound.
Suppose we examine the compound Clc1cccc(Nc2cncc(-c3cncc(NCCCn4cncn4)c3)n2)c1 ; what pIC50 value has been reported?
< 5.00

====

- target-or-test-system: Vascular endothelial growth factor receptor 2 (Homo sapiens)
- assay-notes: Inhibitory concentration (experimental) against vascular endothelial growth factor receptor 2
Would you mind telling me the reported pIC50 of each entry?
Answers are plain numbers, as −log10 of the molar value.

Completed entries (count: 6):
- substance-smiles: "Clc1cccc(Nc2cncc(-c3cncc(NCCCc4ccccc4)c3)n2)c1"
  numeric-value: 5.64
- substance-smiles: "CN1CCN(CCCNc2cncc(-c3cncc(Nc4cccc(Cl)c4)n3)c2)CC1"
  numeric-value: 6.91
- substance-smiles: "O=C(CO)Nc1cncc(-c2cncc(Nc3cccc(Cl)c3)n2)c1"
  numeric-value: 6.46
- substance-smiles: "O=C(CCCNc1cncc(-c2cncc(Nc3cccc(Cl)c3)n2)c1)N1CCCCC1"
  numeric-value: 6.21
- substance-smiles: "OCCCNc1cncc(-c2cncc(NCc3ccccc3)n2)c1"
  numeric-value: 5.98
- substance-smiles: "CN(C)CCNc1cncc(-c2cncc(Nc3cccc(Cl)c3)n2)c1"
  numeric-value: 6.98

Fill in pIC50 for each of the 8 compounds listed.
1. O=C(NCCCO)c1cncc(-c2cncc(Nc3cccc(Cl)c3)n2)c1
2. Clc1cccc(Nc2cncc(-c3cncc(NCC4CCOCC4)c3)n2)c1
3. Clc1cccc(Nc2cncc(-c3cncc(NCCCn4cncn4)c3)n2)c1
4. Nc1ncc(NCCCO)cc1-c1cncc(Nc2cccc(Cl)c2)n1
5. CN(C)CCNC(=O)c1cncc(-c2cncc(Nc3cccc(Cl)c3)n2)c1
6. O=C(O)CCCNc1cncc(-c2cncc(Nc3cccc(Cl)c3)n2)c1
7. OCCCCNc1cncc(-c2cncc(Nc3cccc(Cl)c3)n2)c1
8. COCC(=O)Nc1cncc(-c2cncc(Nc3cccc(Cl)c3)n2)c1

1: 5.62; 2: 6.41; 3: 7.17; 4: 5.87; 5: 5.37; 6: 6.24; 7: 7.20; 8: 6.52

List pIC50 for every entry below, keeping the order given.
1. Clc1cccc(Nc2cncc(-c3cncc(NCCCN4CCNCC4)c3)n2)c1
2. Clc1ccc(Nc2cncc(-c3cncc(NCCCc4ccncc4)c3)n2)cc1Cl
3. Clc1cccc(Nc2cncc(-c3cncc(NCCCN4CCCCC4)c3)n2)c1
4. COCCC(=O)Nc1cncc(-c2cncc(Nc3cccc(Cl)c3)n2)c1
5. Clc1cccc(Nc2cncc(-c3cncc(NCCCc4cccnc4)c3)n2)c1
6. Clc1cccc(Nc2cncc(-c3cncc(NCCCN4CCOCC4)c3)n2)c1

6.63
6.72
6.40
6.23
7.12
6.74

====

- target-or-test-system: Glycogen synthase kinase-3 (Homo sapiens, UniProt P49840+P49841)
- assay-notes: Inhibition of glycogen synthase kinase-3
- Assay type: protein assay
Consider the following compounds; for each one, report its IC50.
Answers are plain numbers, in nM.

Reference set, count: 3
- substance-smiles: "Clc1cccc(Nc2cncc(-c3cncc(NCCCc4cccnc4)c3)n2)c1"
  numeric-value: 318
- substance-smiles: "Clc1cccc(Nc2cncc(-c3cncc(NCCCn4cncn4)c3)n2)c1"
  numeric-value: 196
- substance-smiles: "Clc1cccc(Nc2cncc(-c3cncc(NCCCn4cccn4)c3)n2)c1"
  numeric-value: 606

Kindly review the next compound as well.
I'd like to know its IC50. The compound in question is OCCCCNc1cncc(-c2cncc(Nc3cccc(Cl)c3)n2)c1
4020

====

- Test system: HUVEC
- assay-notes: Concentration required to inhibit proliferation of HUVEC
- run-conditions: Homo sapiens
Kindly supply the reported pIC50 values for the records listed here.
Give bare numbers, as −log10 of the molar value.

- substance-smiles: "Clc1cccc(Nc2cncc(-c3cncc(NCCCc4cccnc4)c3)n2)c1"
  endpoint: "pIC50"
  numeric-value: 5.78
- substance-smiles: "Clc1cccc(Nc2cncc(-c3cncc(NCCCn4cncn4)c3)n2)c1"
  endpoint: "pIC50"
  numeric-value: 5.97
- substance-smiles: "OCCCCNc1cncc(-c2cncc(Nc3cccc(Cl)c3)n2)c1"
  endpoint: "pIC50"
  numeric-value: 5.93
- substance-smiles: "CN(C)CCNc1cncc(-c2cncc(Nc3cccc(Cl)c3)n2)c1"
  endpoint: "pIC50"
  numeric-value: 6.06
- substance-smiles: "OCCCNc1cncc(-c2cncc(Nc3cccc(Cl)c3)n2)c1"
  endpoint: "pIC50"
  numeric-value: 5.77

# lookup: pIC50 of Clc1cccc(Nc2cncc(-c3cncc(NCCCn4cccn4)c3)n2)c1
5.86

====

- target-or-test-system: Vascular endothelial growth factor receptor 2 (Homo sapiens, UniProt P35968)
- Sequence (P35968 whole entry): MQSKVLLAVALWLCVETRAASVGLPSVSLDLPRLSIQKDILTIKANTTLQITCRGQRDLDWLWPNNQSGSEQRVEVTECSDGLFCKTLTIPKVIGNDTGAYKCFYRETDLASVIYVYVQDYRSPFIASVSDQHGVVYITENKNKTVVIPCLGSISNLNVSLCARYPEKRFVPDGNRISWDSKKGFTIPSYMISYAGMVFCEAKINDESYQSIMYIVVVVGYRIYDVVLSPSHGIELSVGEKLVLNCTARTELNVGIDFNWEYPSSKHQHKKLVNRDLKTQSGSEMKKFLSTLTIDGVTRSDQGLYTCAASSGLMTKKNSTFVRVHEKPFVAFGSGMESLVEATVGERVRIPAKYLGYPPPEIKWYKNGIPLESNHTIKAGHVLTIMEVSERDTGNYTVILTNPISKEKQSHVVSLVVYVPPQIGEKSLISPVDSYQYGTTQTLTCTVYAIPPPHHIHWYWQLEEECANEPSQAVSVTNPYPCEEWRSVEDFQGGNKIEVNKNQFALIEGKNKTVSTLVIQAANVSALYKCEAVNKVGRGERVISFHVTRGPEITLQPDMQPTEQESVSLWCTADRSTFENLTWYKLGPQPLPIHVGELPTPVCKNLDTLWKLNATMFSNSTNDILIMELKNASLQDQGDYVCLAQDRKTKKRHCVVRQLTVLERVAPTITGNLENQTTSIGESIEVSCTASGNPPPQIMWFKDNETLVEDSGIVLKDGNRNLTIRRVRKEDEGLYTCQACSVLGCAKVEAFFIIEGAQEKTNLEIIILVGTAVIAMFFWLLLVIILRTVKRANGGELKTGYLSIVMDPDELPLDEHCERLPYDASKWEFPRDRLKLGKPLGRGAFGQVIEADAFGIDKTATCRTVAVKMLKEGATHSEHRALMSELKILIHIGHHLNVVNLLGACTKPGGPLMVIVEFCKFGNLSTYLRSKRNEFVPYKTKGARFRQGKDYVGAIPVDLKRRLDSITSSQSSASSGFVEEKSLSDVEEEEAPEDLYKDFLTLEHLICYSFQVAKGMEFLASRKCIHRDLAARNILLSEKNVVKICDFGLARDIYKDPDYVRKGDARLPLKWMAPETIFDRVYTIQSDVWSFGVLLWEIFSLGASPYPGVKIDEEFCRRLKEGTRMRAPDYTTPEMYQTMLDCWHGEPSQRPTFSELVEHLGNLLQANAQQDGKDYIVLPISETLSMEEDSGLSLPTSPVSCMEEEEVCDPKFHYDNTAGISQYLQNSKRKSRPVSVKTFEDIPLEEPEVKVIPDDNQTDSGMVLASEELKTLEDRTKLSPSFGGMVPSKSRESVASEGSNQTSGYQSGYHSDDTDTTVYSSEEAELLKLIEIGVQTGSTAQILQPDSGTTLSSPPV
- assay-notes: Inhibition of vascular endothelial growth factor receptor 2
endpoint: pIC50
Answers are plain numbers, as −log10 of the molar value.

Would you please look over these solved cases?
- substance-smiles: "Clc1cccc(Nc2cncc(-c3cncc(NCCCN4CCCCC4)c3)n2)c1"
  pIC50: 6.40
- substance-smiles: "Clc1cccc(Nc2cncc(-c3cncc(NCCCc4ccncc4)c3)n2)c1"
  pIC50: 7.12
- substance-smiles: "OCCCNc1cnc(F)c(-c2cncc(Nc3cccc(Cl)c3)n2)c1"
  pIC50: 6.60

Please give pIC50, item by item, for the list that follows.
1. CN(C)CCCNc1cncc(-c2cncc(Nc3cccc(Cl)c3)n2)c1
2. OCCNc1cncc(-c2cncc(Nc3cccc(Cl)c3)n2)c1
3. OCCCNc1cncc(-c2cncc(Nc3cccc(F)c3)n2)c1
4. Clc1ccc(Nc2cncc(-c3cncc(NCCCc4ccncc4)c3)n2)cc1Cl
5. O=C(CO)Nc1cncc(-c2cncc(Nc3cccc(Cl)c3)n2)c1

[6.87, 6.56, 6.77, 6.72, 6.46]

Please give the measured pIC50 for this compound: Clc1cccc(Nc2cncc(-c3cncc(NCCCc4cccnc4)c3)n2)c1
7.12
